# relative affinity annotations
tested.system: T1, HLA-DP402 (HLA-DPB1*04:02) (human, UniProt P20036 29-222)
T1 construct: mature; purified from homozygous EBV-transformed lymphoblastoid cells with antibody B7/21
assay.name: competition ELISA vs biotin-Oxy 271-287;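 note: plates incubated 24–72 h, maximum binding defined by wells lacking competitor, background by wells lacking HLA molecule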
No end group written: not given here.

Example binders with recorded relative affinity:
- binder: "FRLLQETMYMTVSII-NH2 [CCNB1 216-230]"
  measured: 1
- binder: "PTLQHYLSYTEESLL-NH2 [CCNB1 363-377]"
  measured: 50
- binder: "SEYVKDIYAYLRQLE-NH2 [CCNB1 168-182]"
  measured: 127
- binder: "VQMKFRLLQETMYMT-NH2 [CCNB1 212-226]"
  measured: 9
- binder: "RAILIDWLVQVQMKF-NH2 [CCNB1 202-216]"
  measured: 14
- binder: "MTVSIIDRFMQNNCV-NH2 [CCNB1 225-239]"
  measured: 35

Query: # get_value(readout='relative affinity', item= QHYLSYTEESLLPVM-NH2 [CCNB1 366-380] )
Reply: 0.3
